Entries and their HitlevelF values follow.
# Tested on: P. falciparum female gametocytes
# ASSAY_NOTES: P. falciparum Dual Gamete Formation Assay (PfDGFA), female readout (Pfs25-positive female gametes)
# Assay type: cell-based, Plasmodium falciparum NF54
# EXPERIMENTAL_PARAMETERS: number of replicates with >50% inhibition in the female readout, 2µM
Number, no unit, nothing else.

CCCCOc1c(CNCCCCCCNCc2ccc3ccccc3c2OCCCC)ccc2ccccc12.CS(=O)(=O)O: 2
CC(C)(CN)c1nc(-c2ccc(Br)c(O)c2)c(-c2ccncc2)[nH]1.Cl: 4
Fc1ccc2[nH]c(-c3ccc(-c4ccc(CNCCN5CCNCC5)cc4)cc3)nc2c1.O=C(O)C(F)(F)F: 0

Exam item: Give HitlevelF; test system P. falciparum female gametocytes; compound CCOc1c(CNCCCCCCNCc2ccc3ccccc3c2OCC)ccc2ccccc12.CS(=O)(=O)O
Marked response: 1

----------
# System: P. falciparum female gametocytes
# ASSAY_NOTES: P. falciparum Dual Gamete Formation Assay (PfDGFA), female readout (Pfs25-positive female gametes)
# Assay type: cell-based, Plasmodium falciparum NF54
# EXPERIMENTAL_PARAMETERS: PfDGFA at 2µM, 24h preincubation with gametocytes; replicate R1
Parameter threshold = 20%. Response is TRUE when % inhibition female (individual replicates) R1 meets or exceeds it, else FALSE.

COc1ccc(C[C@H](N)C(=O)N[C@H]2[C@@H](O)[C@H](n3cnc4c(N(C)C)ncnc43)O[C@@H]2CO)cc1.Cl [TCMDC-123927]: TRUE

Shifting focus to the compound that follows.
Exam item: Can COc1cc2nc(N3CCC(CNC(=O)c4ccc(-c5ccc(C(F)(F)F)cc5)cc4)CC3)nc(N)c2cc1OC [TCMDC-138716] be said to have % inhibition female (individual replicates) R1 at or above 20%?
Marked response: TRUE

----------
# Tested on: P. falciparum female gametocytes
# ASSAY_NOTES: P. falciparum Dual Gamete Formation Assay (PfDGFA), female readout (Pfs25-positive female gametes)
# Format: cell-based, Plasmodium falciparum NF54
# EXPERIMENTAL_PARAMETERS: 2µM, 24h preincubation; number of replicates with >50% inhibition in the female readout
VALUE_KIND: HitlevelF
Number, no unit, nothing else.

Cl.Cn1ccc(-c2cccc(Nc3ccnc4cc(-c5nccs5)ccc34)c2)n1 [TCMDC-138336]: 0

Exam item: Input CCc1c(CCNCCCCCCNCCc2ccc([N+](=O)[O-])cc2)ccc(OC)c1OC.Cl [TCMDC-132066] , output reported HitlevelF.
Marked response: 1

Exam item: Input CN1CCN(CCCCNc2c3ccccc3nc3ccccc23)CC1 [TCMDC-137479] , output reported HitlevelF.
Marked response: 0

Exam item: Input CC(CCCCCC(=O)Nc1ccc(CC(C)NCCc2cccc(Cl)c2)cc1)NCCc1cccc(Cl)c1 (stereo not drawn) [TCMDC-139800] , output reported HitlevelF.
Marked response: 1

Exam item: Input CN(C)CCN(C)Cc1ccc(-c2ccc3c(Nc4ccc(F)cc4Cl)ccnc3c2)o1 [TCMDC-138447] , output reported HitlevelF.
Marked response: 0

Exam item: Input CC[C@H]1CN2CCc3cc(OC)c(OC)cc3[C@@H]2C[C@@H]1C[C@H]1NCCc2c1cc(OC)c(O)c2Cl [TCMDC-131802] , output reported HitlevelF.
Marked response: 4

----------
# Test system: P. falciparum female gametocytes
# ASSAY_NOTES: P. falciparum Dual Gamete Formation Assay (PfDGFA), female readout (Pfs25-positive female gametes)
# Type: cell-based, Plasmodium falciparum NF54
# EXPERIMENTAL_PARAMETERS: number of replicates with >50% inhibition in the female readout, 2µM
VALUE_KIND: HitlevelF
Number, no unit, nothing else.

CCN(CC)CCOc1ccc(Nc2ncc3cc(-c4c(Cl)cccc4Cl)c(=O)n(C)c3n2)cc1: 0

Exam item: Input CCN(CC)CCOc1ccc(C(O)(C#CC(O)(c2ccc(OCCN(CC)CC)cc2)c2ccc([N+](=O)[O-])cc2)c2ccc([N+](=O)[O-])cc2)cc1 (stereo not shown) , output reported HitlevelF.
Marked response: 2

Exam item: Input CCCOc1ccc2ccccc2c1CNCCCCCCNCc1c(OCCC)ccc2ccccc12.CS(=O)(=O)O , output reported HitlevelF.
Marked response: 0

Exam item: Input COc1ccc2nc(-c3cc(-c4ccc(NC(=O)C(C)C)cc4)cnc3N)[nH]c2c1 , output reported HitlevelF.
Marked response: 0

Exam item: Input COc1cc2nc(NCCCN3CCCCC3)nc(NCc3ccccc3)c2cc1OC , output reported HitlevelF.
Marked response: 4

Exam item: Input O=C(CCC1CCCC1)N(Cc1ccc(-c2ccc(CNCCc3ccccc3)cc2)cc1)C1CCCNC1.O=C(O)C(F)(F)F (stereo not shown) , output reported HitlevelF.
Marked response: 0

Exam item: Input COc1cc2ccccc2c(CNCCCCCCNCc2c(OC)c(OC)cc3ccccc23)c1OC.CS(=O)(=O)O , output reported HitlevelF.
Marked response: 1

----------
# Tested on: HepG2 cells
# ASSAY_NOTES: HepG2 cytotoxicity counter-screen
# EXPERIMENTAL_PARAMETERS: cytotoxic activity against HepG2 cells
VALUE_KIND: Tox50 (µM)
The response must be a number in µM with no trailing unit.

Examples with answers:
FC(F)(F)c1ccc2[nH]c(-c3cccc(-c4ccc(CNCCN5CCNCC5)cc4)c3)nc2c1.O=C(O)C(F)(F)F: 14.49
CC(C)S(=O)(=O)N1CCN(Cc2ccc3c(c2)nc(NC(=O)c2ccsc2)n3C[C@H](O)c2ccccc2)CC1: 8.48

Exam item: Input CCCCOc1ccc(C(=O)C(CCC(CNC(C)(C)C)C(=O)c2ccc(OCCCC)cc2)CNC(C)(C)C)cc1.Cl (stereo not drawn) , output reported Tox50.
Marked response: 3.4

Exam item: Input CCN(CC)CCOc1ccc(C(O)(C#CC(O)(c2ccc(OCCN(CC)CC)cc2)c2ccc([N+](=O)[O-])cc2)c2ccc([N+](=O)[O-])cc2)cc1 (stereo not drawn) , output reported Tox50.
Marked response: 3.49

----------
# System: P. falciparum female gametocytes
# ASSAY_NOTES: P. falciparum Dual Gamete Formation Assay (PfDGFA), female readout (Pfs25-positive female gametes)
# Type: cell-based, Plasmodium falciparum NF54
# EXPERIMENTAL_PARAMETERS: 2µM, 24h preincubation with gametocytes; replicate R4
VALUE_KIND: % inhibition female (individual replicates) R4 (%)
The response must be a number in % with no trailing unit.

Examples with answers:
O=[N+]([O-])c1ccc(C=NO)nc1 [TCMDC-131967]: 43.8
COc1c(CCNCCCCNCCc2cc(Cl)c3ccccc3c2OC)cc(Cl)c2ccccc12.CS(=O)(=O)O [TCMDC-137869]: 88.2
CNCCNCc1ccc(-c2ccc(-c3nc4cc(C(F)(F)F)ccc4[nH]3)s2)cc1.O=C(O)C(F)(F)F [TCMDC-132838]: 33.8
CN(C)CCN(C)Cc1ccc(-c2ccc3c(Nc4ccc(Oc5ccccc5)cc4)ccnc3c2)o1 [TCMDC-138400]: 69.5
CS(=O)(=O)O.FC(F)(F)COc1ccc(CNCCCCCCNCc2ccc(OCC(F)(F)F)c3ccccc23)c2ccccc12 [TCMDC-137853]: 42.3

Exam item: Input CCOC(=O)c1cc2c(CCN3C(=O)c4ccccc4C3=O)cn(C)c2cc1-c1ccncc1 [TCMDC-138099] , output reported % inhibition female (individual replicates) R4.
Marked response: 92.0

Exam item: Input CCCN1CCN(CCNc2c3ccccc3nc3ccccc23)CC1 [TCMDC-137549] , output reported % inhibition female (individual replicates) R4.
Marked response: 28.7

----------
Entries and their % inhibition male (individual replicates) R1 values follow.
# System: P. falciparum male gametocytes
# ASSAY_NOTES: P. falciparum Dual Gamete Formation Assay (PfDGFA), male readout (exflagellation)
# Type: cell-based, Plasmodium falciparum NF54
# EXPERIMENTAL_PARAMETERS: PfDGFA at 2µM, 24h preincubation with gametocytes prior to induction of gametogenesis; replicate R1
The response must be a number in % with no trailing unit.

Examples with answers:
C=C[C@]1(C)C[C@@H](OC(=O)CNC[C@@H](O)CN2C[C@H](c3ccnc4ccc(OC)nc34)OC2=O)[C@]2(C)[C@H](C)CC[C@]3(CCC(=O)[C@H]32)[C@@H](C)[C@@H]1O: -4.9
CS(=O)(=O)c1ccc(-n2nc(C(F)(F)F)cc2-c2ccc(C=NOCC(=O)O)o2)cc1: 7.6
CC(C(=O)OCCOCn1cnc2c(=O)[nH]c(N)nc21)N(C)C(=O)OC(C)(C)C (stereo not shown): 2.6
CN(c1ncc(-c2cccc(CNCc3ccccc3O)c2)cn1)C1CCCCC1: -18.7
COc1ccc(CNC(=O)c2cnc3cc(-c4c(C)noc4C)ccc3c2Nc2ccccc2C(C)(C)C)cc1.Cl: -0.3

Exam item: Input Cc1ccc(Cc2c(C)nc3nc(N)nc(N)c3c2C)cc1.Cl , output reported % inhibition male (individual replicates) R1.
Marked response: 13.2

Exam item: Input CC(=O)Nc1cccc(Nc2nccc(-c3c(-c4cccc(NC(=O)c5c(F)cccc5F)c4)nn4ncccc34)n2)c1 , output reported % inhibition male (individual replicates) R1.
Marked response: 29.2
